biological target: rTAAR1 (wild type rat TAAR1) (Rattus norvegicus, UniProt Q923Y9); assay: In vitro cAMP agonist activity assay; type: cell-based; conditions: read-out: EC50 ± SEM; wild type rTAAR1, HEK293 cells, cAMP
Sequence (Q923Y9 whole entry): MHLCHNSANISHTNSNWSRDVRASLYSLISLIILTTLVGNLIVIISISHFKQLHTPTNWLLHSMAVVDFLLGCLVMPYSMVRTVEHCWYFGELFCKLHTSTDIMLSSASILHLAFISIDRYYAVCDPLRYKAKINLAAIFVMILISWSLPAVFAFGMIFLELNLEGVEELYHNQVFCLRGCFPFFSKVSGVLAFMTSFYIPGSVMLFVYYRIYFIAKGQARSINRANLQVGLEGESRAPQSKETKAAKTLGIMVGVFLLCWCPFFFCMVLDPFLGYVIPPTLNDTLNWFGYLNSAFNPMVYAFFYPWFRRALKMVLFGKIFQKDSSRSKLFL
quantityMeasured: EC50 (µM)
Could you give me the number in µM? Just the number is fine.

input: Look at this molecule and give its reported EC50. NCCc1ccc(Oc2ccc(O)cc2)c(I)c1 [Compound 1, 3-Iodothyronamine]
output: 0.033

---

biological target: mTAAR1(T6.55M/Y7.39N) (Mus musculus, UniProt Q923Y8, T268M/Y287N); assay: cAMP agonist activity assay, mTAAR1; assay type: cell-based; conditions: read-out: EC50 ± SEM
Sequence (Q923Y8 whole entry T268M/Y287N): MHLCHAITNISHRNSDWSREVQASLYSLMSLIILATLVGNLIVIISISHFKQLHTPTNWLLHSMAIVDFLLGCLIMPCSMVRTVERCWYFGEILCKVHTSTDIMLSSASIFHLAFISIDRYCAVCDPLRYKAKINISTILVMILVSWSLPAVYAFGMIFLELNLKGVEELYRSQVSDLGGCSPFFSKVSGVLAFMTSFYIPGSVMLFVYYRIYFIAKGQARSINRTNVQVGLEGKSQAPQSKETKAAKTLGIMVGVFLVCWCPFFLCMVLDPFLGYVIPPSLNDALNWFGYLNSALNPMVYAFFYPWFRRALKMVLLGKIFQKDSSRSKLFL
quantityMeasured: EC50
Remember to put the unit after the number in your answer.

input: I'm curious: which EC50 was measured for `NCCc1ccc(Oc2ccc(O)cc2)c(I)c1` tested on mTAAR1(T6.55M/Y7.39N) (Mus musculus, UniProt Q923Y8, T268M/Y287N)?
output: 208 nM

---

target: mTAAR1 (wild type mouse TAAR1) (Mus musculus, UniProt Q923Y8); assay: In vitro cAMP agonist activity assay, wild type mTAAR1; format: cell-based
Sequence (Q923Y8 whole entry): as the sequence (Q923Y8 whole entry T268M/Y287N) above, with M268T, N287Y counted along it
quantityMeasured: EC50 (nM)
Field format: number, assumed nM, no unit text.

input: Record `NCCc1ccc(O)cc1` : what is its EC50 with mTAAR1 (wild type mouse TAAR1) (Mus musculus, UniProt Q923Y8)?
output: 271

---

biological target: rTAAR1 (wild type rat TAAR1) (Rattus norvegicus); assay: In vitro cAMP agonist activity assay; type: cell-based
quantityMeasured: EC50 (nM)
// return numeric value only (unit: nM, not printed)

input: Using the record for `NCCc1ccc(O)cc1` , report its EC50.
output: 65

---

biological target: rTAAR1(M6.55T) (Rattus norvegicus, UniProt Q923Y9, M268T); assay: cAMP agonist activity assay, rTAAR1; conditions: read-out: EC50 ± SEM
Sequence (Q923Y9 whole entry M268T): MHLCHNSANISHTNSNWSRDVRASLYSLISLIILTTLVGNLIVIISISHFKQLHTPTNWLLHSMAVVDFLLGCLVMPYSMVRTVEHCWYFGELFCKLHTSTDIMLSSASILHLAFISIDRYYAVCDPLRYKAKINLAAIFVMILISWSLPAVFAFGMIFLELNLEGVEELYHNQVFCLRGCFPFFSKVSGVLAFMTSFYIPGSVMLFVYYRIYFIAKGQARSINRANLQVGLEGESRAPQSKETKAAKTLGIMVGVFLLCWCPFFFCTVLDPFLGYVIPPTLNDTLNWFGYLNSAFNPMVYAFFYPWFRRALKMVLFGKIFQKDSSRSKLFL
quantityMeasured: pEC50
The read-out pEC50 is expressed as -log10 of concentration in moles per litre.

input: Query the reported pEC50 for rTAAR1(M6.55T) (Rattus norvegicus, UniProt Q923Y9, M268T); item: `NCCc1ccc(Oc2ccc(O)cc2)c(I)c1`
output: 6.89

---

molecular target: mTAAR1(Y4.56F) (Mus musculus, UniProt Q923Y8, Y153F); assay: cAMP agonist activity assay, mTAAR1
Sequence (Q923Y8 whole entry Y153F): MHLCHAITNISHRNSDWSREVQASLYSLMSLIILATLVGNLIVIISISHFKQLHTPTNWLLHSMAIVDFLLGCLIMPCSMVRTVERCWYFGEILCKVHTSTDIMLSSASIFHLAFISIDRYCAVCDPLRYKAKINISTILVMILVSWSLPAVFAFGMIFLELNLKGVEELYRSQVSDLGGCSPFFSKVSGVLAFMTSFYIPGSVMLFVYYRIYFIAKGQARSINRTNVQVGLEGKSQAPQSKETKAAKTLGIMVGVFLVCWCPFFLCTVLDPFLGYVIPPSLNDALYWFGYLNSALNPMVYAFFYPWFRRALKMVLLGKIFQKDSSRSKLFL
quantityMeasured: EC50
Please give the number followed by its unit.

input: Test system mTAAR1(Y4.56F) (Mus musculus, UniProt Q923Y8, Y153F); read-out EC50; what value for NCCc1ccc(O)cc1 [Tyramine, tyramine] ?
output: 40 nM

---

target: rTAAR1(A5.42T) (Rattus norvegicus, UniProt Q923Y9, A193T); test: cAMP agonist activity assay, rTAAR1; assay type: cell-based; settings: read-out: EC50 ± SEM; rTAAR1 A5.42T
Sequence (Q923Y9 whole entry A193T): as the sequence (Q923Y9 whole entry) above, with A193T counted along it
quantityMeasured: EC50 (nM)
Numbers only; they are read as nM.

input: Value lookup for EC50; key = NCCc1ccc(Oc2ccc(O)cc2)c(I)c1 [Compound 1, 3-Iodothyronamine]
output: 88

---

biological target: rTAAR1(A5.42L) (Rattus norvegicus, UniProt Q923Y9, A193L); experiment: cAMP agonist activity assay, rTAAR1; assay type: cell-based
Sequence (Q923Y9 whole entry A193L): as the sequence (Q923Y9 whole entry) above, with A193L counted along it
quantityMeasured: EC50

input: // lookup EC50 | system=rTAAR1(A5.42L) (Rattus norvegicus, UniProt Q923Y9, A193L) | key= `NCCc1ccc(O)cc1`
output: ~2000 nM
